assay-comment: Stability in cynomolgus monkey fecal homogenate
Format: in vitro ADME
study-conditions: 20% fecal homogenate (supernatant), pH 6.8, 20% cynomolgus monkey fecal homogenate, anaerobic, 37° C., read-out: t½: Monkey Feces anaerobic (converted)
Bridge positions count the residues as written; N and C are the ends. Square brackets hold non-standard residues; d marks the D form. Peptide text beside a SMILES is read from it. Trp(7-Me) = Cc1cccc2c(C[C@H](N)C(=O)O)c[nH]c12; 2Nal = N[C@@H](Cc1ccc2ccccc2c1)C(=O)O; AEF = NCCOc1ccc(C[C@H](N)C(=O)O)cc1; Cit = NC(=O)NCCC[C@H](N)C(=O)O; Pen = CC(C)(S)[C@H](N)C(=O)O; αMeK = C[C@](N)(CCCCN)C(=O)O; Aib = CC(C)(N)C(=O)O
assay-endpoint: half-life at 20 μM (h)
Quick note: give the figure in h, leave out the unit.

Q: Param item = CC(=O)NCCCC[C@H](NC(=O)[C@](C)(CCCCN)NC(=O)[C@H](Cc1ccc2ccccc2c1)NC(=O)[C@H](Cc1ccc(OCCN)cc1)NC(=O)[C@H]1NC(=O)[C@H](CCCNC(N)=O)NC(=O)[C@H](Cc2c[nH]c3c(C)cccc23)NC(=O)[C@H]([C@@H](C)O)NC(=O)[C@H](CC(N)=O)NC(=O)[C@@H](NC(C)=O)C(C)(C)SSC1(C)C)C(=O)N[C@@H](CC(N)=O)C(=O)NC(C)(C)C(=O)N[C@@H](C)C(N)=O [compound 342] (Ac-[Pen]NT[Trp(7-Me)][Cit][Pen][AEF][2Nal][αMeK]K(Ac)N[Aib]A-NH2; disulfide 1-6) ; retrieve measured half-life at 20 μM.
A: 15

* * *

assay-comment: Stability in human fecal homogenate
Format: in vitro ADME
study-conditions: 20% fecal homogenate (supernatant), pH 6.8, 20% human fecal homogenate, anaerobic, 37° C., read-out: t½: Human Feces anaerobic (converted)
Bridge positions count the residues as written; N and C are the ends. Square brackets hold non-standard residues; d marks the D form. Peptide text beside a SMILES is read from it. Trp(7-Me) = Cc1cccc2c(C[C@H](N)C(=O)O)c[nH]c12; 2Nal = N[C@@H](Cc1ccc2ccccc2c1)C(=O)O; AEF = NCCOc1ccc(C[C@H](N)C(=O)O)cc1; Cit = NC(=O)NCCC[C@H](N)C(=O)O; Pen = CC(C)(S)[C@H](N)C(=O)O; αMeK = C[C@](N)(CCCCN)C(=O)O; Aib = CC(C)(N)C(=O)O
Form field: half-life at 20 μM (one value per entry).

[[record]]
compound = "CC(=O)NCCCC[C@H](NC(=O)[C@](C)(CCCCN)NC(=O)[C@H](Cc1ccc2ccccc2c1)NC(=O)[C@H](Cc1ccc(OCCN)cc1)NC(=O)[C@H]1NC(=O)[C@H](CCCNC(N)=O)NC(=O)[C@H](Cc2c[nH]c3c(C)cccc23)NC(=O)[C@H]([C@@H](C)O)NC(=O)[C@H](CC(N)=O)NC(=O)[C@@H](NC(C)=O)C(C)(C)SSC1(C)C)C(=O)N[C@@H](CC(N)=O)C(=O)NC(C)(C)C(=O)NCC(N)=O [compound 341] (Ac-[Pen]NT[Trp(7-Me)][Cit][Pen][AEF][2Nal][αMeK]K(Ac)N[Aib]G-NH2; disulfide 1-6)"
endpoint_value = "> 24 h"


Let us examine a further case.
Q: Fill blank: measured half-life at 20 μM of the compound "CC(=O)NCCCC[C@@H]1NC(=O)[C@H](Cc2c[nH]c3c(C)cccc23)NC(=O)[C@H]([C@@H](C)O)NC(=O)[C@H](CC(N)=O)NC(=O)[C@@H](NC(C)=O)C(C)(C)SSC(C)(C)[C@@H](C(=O)N[C@@H](Cc2ccc(OCCN)cc2)C(=O)N[C@@H](Cc2ccc3ccccc3c2)C(=O)N[C@@](C)(CCCCN)C(=O)N[C@@H](CCCCNC(C)=O)C(=O)N[C@@H](CC(N)=O)C(=O)N[C@@H](CCCNC(N)=O)C(N)=O)NC1=O" is ____.
A: > 17 h
